assay: S16 Schwann cell PMP22 intronic element firefly luciferase assay (AID 624032); details: S16 rat Schwann cells, PMP22 element FLuc, 24 h; series mostly up to 57.5 µM; also: nearly all actives have a fitted effect of over 30% in size; also: potency is read from the fitted curve at half-maximal effect
Inconclusive results are not listed. Calls of active or inactive are those of the source. Calls follow the shape of the dose curve; as a rule, active = well fitted inhibition curve with a large enough effect; inconclusive = small, poorly fitted or top-dose-only effect; inactive = no such curve, though single readings can be large or run the other way.
readout kind: Potency

Check out these entries, answers already filled in.
CCCC(CCC)C(=O)O :: inactive
NCCc1ccc(O)c(O)c1 :: 8.09 µM (active)
Clc1cccc(Cl)c1NC1=NCCN1 :: inactive
CC(C[N+](C)(C)C)OC(N)=O (centres undefined) :: inactive
NC(=O)c1cnccn1 :: inactive

GET /values?readout=Potency&item= N#Cc1ccc(C(c2ccc(C#N)cc2)n2cncn2)cc1
inactive

Need Potency of Oc1ccc(C2CNCCc3c2cc(O)c(O)c3Cl)cc1 (centres undefined) , thanks.
inactive

# Potency lookup, item O=c1n(CCCN2CCN(c3cccc(Cl)c3)CC2)nc2ccccn12
inactive

Given the entry CC(=O)Oc1ccccc1C(=O)O , report its measured Potency.
inactive

Which Potency reading was recorded for the compound O=c1[nH]cnc2[nH]ncc12 ?
inactive

# Potency lookup, item Cc1ccc(N(CC2=NCCN2)c2cccc(O)c2)cc1
inactive
